# Target Under Test: proteasome subunit β5 (beta5) (Homo sapiens, UniProt P28074)
# Construct: Lysate from the human acute lymphoblastic leukemia cell line, MOLT-4; endogenous in cells; host or cells: MOLT-4
# Method Summary: Proteasome active-site ELISA (ProCISE), beta5, MOLT-4 lysate
# Assay type: biochemical
# Setup Conditions: MOLT4 lysate, human, 1 h continuous treatment, 25° C.
Readout Kind: IC50 (µM)

1 = COc1ccc(C[C@H](NC(=O)[C@H](C)NC(=O)CN2CCOCC2)C(=O)N[C@@H](CC2CCC2)C(=O)[C@@]2(C)CO2)cc1
2 = COc1ccc(C[C@H](NC(=O)[C@H](C)NC(=O)CN2CCOCC2)C(=O)N[C@@H](C[C@H]2CCCO2)C(=O)[C@@]2(C)CO2)cc1
3 = COc1ccc(C[C@H](NC(=O)[C@H](C)NC(=O)CN2CCOCC2)C(=O)N[C@@H](CC2CCCC2)C(=O)[C@H]2CO2)cc1OC
Sort by IC50, descending. Answer by writing out the labels in the requested order. 2, 3, 1

----------
# Target Under Test: proteasome subunit β5 (beta5) (Homo sapiens)
# Construct: Lysate from the human acute lymphoblastic leukemia cell line, MOLT-4; endogenous in cells; host or cells: MOLT-4
# Method Summary: Proteasome active-site ELISA (ProCISE), beta5, MOLT-4 lysate
# Assay type: biochemical
# Setup Conditions: MOLT4 lysate, human, 1 h continuous treatment, 25° C.
Readout Kind: IC50 (nM)

1 = COc1ccc(C[C@H](NC(=O)[C@@H](C)NC(=O)[C@H]2CC[C@H](O)CC2)C(=O)N[C@@H](CC2=CCCCC2)C(=O)[C@@]2(C)CO2)cc1
2 = COc1ccc([C@@H](O)[C@H](NC(=O)[C@@H](C)NC(=O)[C@H]2CC[C@H](O)CC2)C(=O)N[C@@H](CC2CCCC2)C(=O)[C@@]2(C)CO2)cc1
3 = CCc1ccc(C[C@H](NC(=O)[C@H](C)NC(=O)CN2CCOCC2)C(=O)N[C@@H](CC2=CCCC2)C(=O)[C@@]2(C)CO2)cc1O
Method: rank(items above, key=IC50, ascending=True) Answer by writing out the labels in the requested order. 3, 2, 1
(3: 402 nM, 2: 2230 nM, 1: 8970 nM)

----------
# Target Under Test: proteasome subunit β5 (beta5) (Homo sapiens)
# Construct: Lysate from the human acute lymphoblastic leukemia cell line, MOLT-4; endogenous in cells; host or cells: MOLT-4
# Method Summary: Proteasome active-site ELISA (ProCISE), beta5, MOLT-4 lysate
# Assay type: biochemical
# Setup Conditions: MOLT4 lysate, human, 1 h continuous treatment, 25° C.
Readout Kind: IC50 (nM)

# count of solved cases: 4
INSERT INTO assay_data (compound_smiles, units_symbol, recorded_result) VALUES
  ('COc1ccc(C[C@H](NC(=O)[C@@H](C)NC(=O)[C@@H]2CCCOC2)C(=O)N[C@@H](CC2CCCC2)C(=O)[C@@]2(C)CO2)cc1', 'nM', 512),
  ('C[C@@H](NC(=O)[C@H]1CC[C@H](O)CC1)C(=O)N[C@@H](Cc1ccc(C#N)cc1)C(=O)N[C@@H](CC1CCCC1)C(=O)[C@@]1(C)CO1', 'nM', 1960),
  ('COc1ccc(C[C@H](NC(=O)[C@@H](C)NC(=O)[C@H]2CC[C@](C)(O)CC2)C(=O)N[C@@H](CC2=CCCC2)C(=O)[C@@]2(C)CO2)cc1', 'nM', 1750),
  ('C[C@H](NC(=O)CN1CCOCC1)C(=O)N[C@@H](Cc1ccc(C(N)=O)cc1)C(=O)N[C@@H](CC1CCCC1)C(=O)[C@@]1(C)CO1', 'nM', 796);

P = COc1ccc(C[C@H](NC(=O)[C@@H](C)NC(=O)[C@H]2CC[C@@H](O)CC2)C(=O)N[C@@H](CC2=CCCC2)C(=O)[C@@]2(C)CO2)cc1
Q = COc1ccc(C[C@H](NC(=O)[C@@H](C)NC(=O)C2COC2)C(=O)N[C@@H](CC2=CCCC2)C(=O)[C@@]2(C)CO2)cc1
In the pair P and Q , the larger recorded IC50 belongs to which? Answer format: the label of the selected item. Q
(Q: 7150 nM, P: 17.4 nM)

A = CC[C@H](NC(=O)CN1CCOCC1)C(=O)N[C@@H](Cc1ccc(OC)cc1)C(=O)N[C@@H](CC1CCCC1)C(=O)[C@@]1(C)CO1
B = COc1ccc(C[C@H](NC(=O)[C@@H](C)NC(=O)[C@H]2CC[C@H](O)CC2)C(=O)N[C@@H](CC2=CCCC2)C(=O)[C@@]2(C)CO2)cc1O
Looking at A and B , which one comes out lower in IC50 terms? Answer format: the label of the selected item. A

A = COc1ccc(C[C@H](NC(=O)[C@H](C)NC(=O)CC2CCOCC2)C(=O)N[C@@H](CC2CCCC2)C(=O)[C@@]2(C)CO2)cc1
B = COc1ccc(C[C@H](NC(=O)[C@H](CC#N)NC(=O)CN2CCOCC2)C(=O)N[C@@H](CC2=CCCC2)C(=O)[C@@]2(C)CO2)cc1
Looking at A and B , which one comes out lower in IC50 terms? Answer format: the label of the selected item. B

1 = C[C@H](NC(=O)CN1CCOCC1)C(=O)N[C@@H](Cc1ccc(S(C)(=O)=O)cc1)C(=O)N[C@@H](CC1=CCCC1)C(=O)[C@@]1(C)CO1
2 = C[C@H](NC(=O)CN1CCOCC1)C(=O)N[C@@H](Cc1ccc(S(C)(=O)=O)cc1)C(=O)N[C@@H](CC1CCCC1)C(=O)[C@@]1(C)CO1
3 = COc1ccc(C[C@H](NC(=O)[C@@H](C)NC(=O)[C@H]2CC[C@H](O)CC2)C(=O)N[C@@H](CC2CCCC2)C(=O)[C@@]2(C)CO2)cc1
Falling order of IC50, please. Answer by writing out the labels in the requested order. 3, 2, 1

A = COc1ccc(C[C@H](NC(=O)[C@@H](C)NC(=O)[C@H]2CC[C@@H](O)C2)C(=O)N[C@@H](CC2CCCC2)C(=O)[C@@]2(C)CO2)cc1
B = COc1ccc(C[C@H](NC(=O)[C@H](C)NC(=O)CN2CCC(F)(F)CC2)C(=O)N[C@@H](CC2CCCC2)C(=O)[C@@]2(C)CO2)cc1
In the pair A and B , the larger recorded IC50 belongs to which? Answer format: the label of the selected item. A
(A: 788 nM, B: 198 nM)

a = COc1ccc(C[C@H](NC(=O)[C@H](C)NC(=O)CN2CCOCC2)C(=O)N[C@@H](CC2CCCC2)C(=O)[C@@]2(C)CO2)cc1
b = Cc1ccc(C[C@H](NC(=O)[C@H](C)NC(=O)CN2CCOCC2)C(=O)N[C@@H](CC2=CCCC2)C(=O)[C@@]2(C)CO2)cc1O
c = COc1ccc(C[C@H](NC(=O)[C@@H](C)NC(=O)[C@H]2C[C@H](O)C2)C(=O)N[C@@H](CC2CCCC2)C(=O)[C@@]2(C)CO2)cc1
d = COc1ccc(C[C@H](NC(=O)[C@H](C)NC(=O)CN2CCOCC2)C(=O)N[C@@H](CC2CC=CC2)C(=O)[C@@]2(C)CO2)cc1
Falling order of IC50, please. Answer by writing out the labels in the requested order. c, a, b, d
(c: 12500 nM, a: 1940 nM, b: 793 nM, d: 335 nM)

1 = COc1ccc(C[C@H](NC(=O)[C@@H](C)NC(=O)[C@H]2CC[C@H](O)CC2)C(=O)N[C@@H](CC2=CCCC2)C(=O)[C@@]2(C)CO2)cc1
2 = COc1ccc(C[C@H](NC(=O)[C@H](C)NC(=O)[C@@H]2CCCO2)C(=O)N[C@@H](Cc2ccccc2)C(=O)[C@@]2(C)CO2)cc1
Looking at 1 and 2 , which one comes out lower in IC50 terms? Answer format: the label of the selected item. 2
(2: 526 nM, 1: 2550 nM)
